// data source = PubChem BioAssay (NCI)

Test system: MDA-MB-435
Assay: NCI tumour cell line growth inhibition, 48 h
Please enter rule met where TGI is greater than or equal to 30 µM, and rule not met where it is lower.

Molecule | Category label
CN(/N=C/c1ccc(C(=O)O)cc1)C1=NCCCCN1 | rule met
O=NNc1ccc2ccccc2n1 | rule met
COc1c(=O)cc2cc[nH]c3cc[nH]c1c23 | rule met
O=C(/C=C/c1ccc(O)c(O)c1)OCC(OC(=O)/C=C/c1ccc(O)c(O)c1)C(=O)O (stereo unspecified) | rule met
NCCCNCCS | rule met
COCCOC(=O)C1=C(O)c2ccccc2S(=O)(=O)N1C | rule met
O=c1[nH]c2cc(C(F)(F)F)ccc2nc1C(F)(F)F | rule met
N#CSCC(Cl)=CCl (mixture of isomers) | rule met
C=C(C)[C@@H]1CC[C@]2(COCCCN)CC[C@]3(C)[C@H](CC[C@@H]4[C@@](C)(CCCNCCCN)[C@H](C(=C)C)CC[C@]43C)[C@@H]12 | rule not met
O=C1CS(=O)(=O)C(c2cccc(Oc3ccccc3)c2)N1c1ccc(Cl)cc1 (stereo unspecified) | rule met
CCOC(=O)/C=C(\C(=O)OCC)n1cc(C)c(=O)n(Cc2cn(CCCCOC(C)=O)nn2)c1=O | rule not met
O=C(O)c1c2c(cc3c1CC(Cc1ccccc1)C3=O)CCC2 (stereo unspecified) | rule met
CCN1C(=O)/C(=C/c2c(Cl)[nH]c3cc(C)c(OC)cc23)c2ccccc21 | rule not met
CCCCCCCCn1ccc2cc(NC(=O)Cn3cc(CN4CCCCCC4)nn3)ccc21 | rule not met
CCN1CCCc2cc3c(C(F)(F)F)cc(=O)oc3cc21 | rule met
O=C1C=CC(=O)C2C1C1(Cl)C(Cl)=C(Cl)C2(Cl)C1(Cl)Cl (stereo unspecified) | rule not met
COC(=O)C1Cc2cc3c(cc2C1=O)CCC3 (stereo unspecified) | rule met
Cc1ccc(S(=O)(=O)N=Nc2c(O)[nH]c3cc(O)c(C(=O)O)cc23)cc1 | rule met
Cc1cn(-c2cc(NC(=O)c3cccc(C#Cc4cccc5[nH]nc(N)c45)c3)cc(C(F)(F)F)c2)cn1 | rule met
S=C(N/N=C/c1ccccn1)N1CCCCC1 | rule met
